target: mA2a/CHO (Mus musculus (Mouse)); assay: cAMP inhibition assay in mA2a/CHO cells, 10 μM adenosine; type: cell-based; conditions: read-out: cAMP & FLIPR IC50 (nM) mA2a;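 also: compounds preincubated 30 min at 37 °C before the adenosine challenge, then 30 min further stimulation, readout after 60 min detection reagent incubation at room temperature in 384-well plates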
Sequence (Q60613 whole entry): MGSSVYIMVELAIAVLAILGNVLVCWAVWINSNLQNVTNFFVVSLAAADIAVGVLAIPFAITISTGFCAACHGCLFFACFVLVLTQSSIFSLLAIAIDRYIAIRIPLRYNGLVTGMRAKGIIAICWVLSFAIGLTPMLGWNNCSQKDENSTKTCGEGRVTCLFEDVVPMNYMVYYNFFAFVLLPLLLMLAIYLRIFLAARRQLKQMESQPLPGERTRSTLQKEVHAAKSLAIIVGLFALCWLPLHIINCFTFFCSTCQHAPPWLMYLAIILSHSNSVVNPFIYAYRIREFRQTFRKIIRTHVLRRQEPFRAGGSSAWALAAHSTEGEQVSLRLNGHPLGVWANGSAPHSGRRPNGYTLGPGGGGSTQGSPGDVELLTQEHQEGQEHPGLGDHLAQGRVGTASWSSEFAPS

{"Molecule": "COc1ccccc1CNC(=O)c1nc(-c2cc(C)c(=O)n(C)c2)c(-c2ccc(F)cc2)nc1N", "Units symbol": "nM", "Qual": "=", "IC50": 59}
{"Molecule": "COc1cccc(F)c1CNC(=O)c1nc(-c2cc(C)nc(C)c2)c(-c2ccc(F)cc2)nc1N", "Units symbol": "nM", "Qual": "=", "IC50": 95}
{"Molecule": "CC(O)Cn1cc(-c2nc(C(=O)NCc3c(F)cccc3F)c(N)nc2-c2ncco2)ccc1=O (single isomer, unassigned) [Example 107]", "Units symbol": "nM", "Qual": "=", "IC50": 166}
{"Molecule": "Cc1cc(-c2nc(C(=O)NCc3ccccc3OC(F)(F)F)c(N)nc2-c2ccc(F)cc2)cc(C)n1", "Units symbol": "nM", "Qual": "=", "IC50": 50}
{"Molecule": "Cc1cnc2ccc(-c3nc(C(=O)NCc4cccc(N5CC6(CCN6C)C5)n4)c(N)nc3-c3ncco3)cn12", "Units symbol": "nM", "Qual": "=", "IC50": 15}
{"Molecule": "CN1CCCC1CNC(=O)c1nc(-c2ccc3ncc(C(F)(F)F)n3c2)c(-c2ncco2)nc1N (single isomer, unassigned) [Cmpd. 206]", "Units symbol": "nM", "Qual": "=", "IC50": 50}
{"Molecule": "Cc1cnc2ccc(-c3nc(C(=O)NCC4CCCCN4C)c(N)nc3-c3ncco3)cn12 (single isomer, unassigned; isomer 1) [Example 124]", "Units symbol": "nM", "Qual": "≥", "IC50": 10000}
{"Molecule": "CNc1ccc(F)c(CNC(=O)c2nc(-c3ccc(=O)n(C)c3)c(-c3ncco3)nc2N)n1", "Units symbol": "nM", "Qual": "=", "IC50": 85}
{"Molecule": "Cn1cc(-c2nc(C(=O)NCc3cccc(N4CCCC4)n3)c(N)nc2-c2ncco2)ccc1=O", "Units symbol": "nM", "Qual": "=", "IC50": 160}
{"Molecule": "Cc1cnc2ccc(-c3nc(C(=O)NC[C@@H]4CCOC4)c(N)nc3-c3ncco3)cn12", "Units symbol": "nM", "Qual": "=", "IC50": 34}
{"Molecule": "Cn1cc(-c2nc(C(=O)NCc3c(F)cccc3P(C)(C)=O)c(N)nc2-c2ncco2)ccc1=O", "Units symbol": "nM", "Qual": "=", "IC50": 40}
{"Molecule": "Cn1cc(-c2nc(C(=O)NCc3ccccc3F)c(N)nc2-c2ncco2)ccc1=O", "Units symbol": "nM", "Qual": "=", "IC50": 20}
{"Molecule": "CNc1cccc(CNC(=O)c2nc(-c3ccc4nccn4c3)c(-c3ncco3)nc2N)n1", "Units symbol": "nM", "Qual": "=", "IC50": 35}
{"Molecule": "CN(C)c1cccnc1CNC(=O)c1nc(-c2ccc(=O)n(C)c2)c(-c2ncco2)nc1N", "Units symbol": "nM", "Qual": "=", "IC50": 8.3}
{"Molecule": "COCCCNC(=O)c1nc(-c2ccc3ncc(C)n3c2)c(-c2ncco2)nc1N", "Units symbol": "nM", "Qual": "=", "IC50": 7.8}
{"Molecule": "Cn1cc(-c2nc(CNC(=O)c3c(F)cccc3C(F)(F)F)c(N)nc2-c2ccc(F)cc2)ccc1=O", "Units symbol": "nM", "Qual": "=", "IC50": 237}
{"Molecule": "Cc1cnc2ccc(-c3nc(C(=O)NCc4cnccc4N(C)C)c(N)nc3-c3ncco3)cn12", "Units symbol": "nM", "Qual": "=", "IC50": 1.7}
{"Molecule": "Cc1cnc2ccc(-c3nc(C(=O)NC[C@H]4CCOC4)c(N)nc3-c3ncco3)cn12", "Units symbol": "nM", "Qual": "=", "IC50": 27}
{"Molecule": "Cc1cnc2ccc(-c3nc(C(=O)NCC4CCCCO4)c(N)nc3-c3ncco3)cn12 (single isomer, unassigned; isomer 1) [Example 165]", "Units symbol": "nM", "Qual": "=", "IC50": 1.42}
{"Molecule": "Cc1ccc(-c2nc(N)c(CNC(=O)c3c(F)cccc3F)nc2-c2ccc(=O)n(C)c2)o1", "Units symbol": "nM", "Qual": "=", "IC50": 43}
{"Molecule": "Nc1nc(-c2ccc(F)cc2)c(-c2ccc(=O)n(C3COC3)c2)nc1C(=O)NCc1c(F)cccc1F", "Units symbol": "nM", "Qual": "=", "IC50": 26}
{"Molecule": "COc1ccc(F)cc1CNC(=O)c1nc(-c2cc(C)nc(C)c2)c(-c2ccc(F)cc2)nc1N", "Units symbol": "nM", "Qual": "=", "IC50": 216}
{"Molecule": "Cc1cnc2ccc(-c3nc(C(=O)NCC4COCCO4)c(N)nc3-c3ncco3)cn12 (racemic)", "Units symbol": "nM", "Qual": "=", "IC50": 19}
{"Molecule": "Cn1nc(-c2nc(C(=O)NCc3c(F)cccc3F)c(N)nc2-c2ncco2)ccc1=O", "Units symbol": "nM", "Qual": "=", "IC50": 56}
{"Molecule": "COc1ccccc1CNC(=O)c1nc(-c2cc(C)nc(C)c2)c(-n2cccn2)nc1N", "Units symbol": "nM", "Qual": "=", "IC50": 623}
{"Molecule": "Cc1cnc2ccc(-c3nc(C(=O)NCC4CCO4)c(N)nc3-c3ncco3)cn12 (single isomer, unassigned) [Example 134]", "Units symbol": "nM", "Qual": "=", "IC50": 77}
{"Molecule": "Cn1cc(-c2nc(C(=O)NCc3ncccc3CO)c(N)nc2-c2ncco2)ccc1=O", "Units symbol": "nM", "Qual": "=", "IC50": 419}
{"Molecule": "Cc1cnc2ccc(-c3nc(C(=O)NCC4CC(=O)N(C)C4)c(N)nc3-c3ncco3)cn12 (single isomer, unassigned; isomer 2) [Example 210]", "Units symbol": "nM", "Qual": "=", "IC50": 88}
{"Molecule": "COc1ccccc1CNC(=O)c1nc(-c2cc(C)nc(N)c2)c(-c2ccc(F)cc2)nc1N", "Units symbol": "nM", "Qual": "=", "IC50": 116}
{"Molecule": "Cn1cc(-c2nc(C(=O)NCc3ncccc3OC(F)(F)F)c(N)nc2-c2ncco2)ccc1=O", "Units symbol": "nM", "Qual": "=", "IC50": 47}
